Tested on: CCRIS mutagenicity, Ames/micronucleus/aberration tests
Test: CCRIS mutagenicity studies
Conditions: Test System: AMES SALMONELLA TYPHIMURIUM; Strain/Indicator: TA1538; Metabolic Activation: MOUSE, LIVER, S-9; Method: STANDARD PLATE
Excerpt: The CCRIS database contains chemical records with carcinogenicity, mutagenicity, tumor promotion, and tumor inhibition test results. It was developed by the National Cancer Institute (NCI). Data are derived from studies cited in primary journals, current awareness tools, NCI reports, and other sources. Test results have been reviewed by experts in carcinogenesis and mutagenesis. CCRIS provides historical information from the years 1985 - 2011. It is no longer updated. […]
Active and inactive are the calls of the source. No rule for the calls is given here.

MOL SMILES: CN(C)c1ccc(C(=O)c2ccc(N(C)C)cc2)cc1
mutagenic call: inactive; negative
//
MOL SMILES: Nc1cccc2c(N)cccc12
mutagenic call: inactive; negative
//
MOL SMILES: COc1ccc(N)cc1
mutagenic call: inactive; negative

###

System: CCRIS mutagenicity, Ames/micronucleus/aberration tests
Test: CCRIS mutagenicity studies
Conditions: Test System: AMES SALMONELLA TYPHIMURIUM; Strain/Indicator: TA100(NR); Metabolic Activation: NONE; Method: PREINCUBATION
The source made the active and inactive calls. No rule for the calls is given here.
Outcomes: active, inactive

MOL SMILES: O=[N+]([O-])c1ccc(CNc2ncnc3c2ncn3[C@@H]2O[C@H](CO)[C@@H](O)[C@H]2O)cc1
ANSWER LABEL: inactive

MOL SMILES: Nc1ncnc2c1nc(-c1ccc([N+](=O)[O-])cc1)n2-c1ccc([N+](=O)[O-])cc1
ANSWER LABEL: inactive

MOL SMILES: CCOc1ccc(N=O)cc1
ANSWER LABEL: active

MOL SMILES: O=C1NCCN1c1ncc([N+](=O)[O-])s1
ANSWER LABEL: active

MOL SMILES: O=C(O)/C=C/c1ccc([N+](=O)[O-])cc1
ANSWER LABEL: active

MOL SMILES: CC(=O)Nc1ccc(Oc2ccc(N(O)C=O)cc2)cc1
ANSWER LABEL: active

MOL SMILES: Nc1nc(NO)c2[nH]cnc2n1
ANSWER LABEL: active

###

Test system: CCRIS mutagenicity, Ames/micronucleus/aberration tests
Experiment: CCRIS mutagenicity studies
Conditions: Test System: AMES SALMONELLA TYPHIMURIUM; Strain/Indicator: TA1537; Metabolic Activation: RAT, LIVER, S-9, AROCLOR 1254 (10%); Method: PREINCUBATION
Active and inactive are the calls of the source. The rule behind the calls is not given here.
Outcomes: true (1) (active), false (0) (inactive)

COMPOUND: CC(=O)[O][Hg][c]1ccccc1
TARGET OR TEST SYSTEM: CCRIS mutagenicity, Ames/micronucleus/aberration tests
ANSWER LABEL: false (0)
--
COMPOUND: ClCc1ccccc1
TARGET OR TEST SYSTEM: CCRIS mutagenicity, Ames/micronucleus/aberration tests
ANSWER LABEL: false (0)
--
COMPOUND: CC(O)CN(CC(C)O)CC(C)O (stereo not given)
TARGET OR TEST SYSTEM: CCRIS mutagenicity, Ames/micronucleus/aberration tests
ANSWER LABEL: false (0)
--
COMPOUND: O=C1c2c(O)ccc([N+](=O)[O-])c2C(=O)c2c([N+](=O)[O-])ccc(O)c21
TARGET OR TEST SYSTEM: CCRIS mutagenicity, Ames/micronucleus/aberration tests
ANSWER LABEL: true (1)
--
COMPOUND: NCCNCCO
TARGET OR TEST SYSTEM: CCRIS mutagenicity, Ames/micronucleus/aberration tests
ANSWER LABEL: false (0)
--
COMPOUND: COc1c(C(C)(C)C)cc([N+](=O)[O-])c(C)c1[N+](=O)[O-]
TARGET OR TEST SYSTEM: CCRIS mutagenicity, Ames/micronucleus/aberration tests
ANSWER LABEL: false (0)
--
COMPOUND: CC(C)(C)C(=O)C1C(=O)c2ccccc2C1=O
TARGET OR TEST SYSTEM: CCRIS mutagenicity, Ames/micronucleus/aberration tests
ANSWER LABEL: false (0)
--
COMPOUND: CC(C)(c1cc(Br)c(O)c(Br)c1)c1cc(Br)c(O)c(Br)c1
TARGET OR TEST SYSTEM: CCRIS mutagenicity, Ames/micronucleus/aberration tests
ANSWER LABEL: false (0)
--
COMPOUND: Cc1ccc(S(=O)(=O)O)cc1C
TARGET OR TEST SYSTEM: CCRIS mutagenicity, Ames/micronucleus/aberration tests
ANSWER LABEL: false (0)
--
COMPOUND: O=C1NC(=O)C(c2ccccc2)(c2ccccc2)N1
TARGET OR TEST SYSTEM: CCRIS mutagenicity, Ames/micronucleus/aberration tests
ANSWER LABEL: false (0)
--
COMPOUND: CC(=O)NS(=O)(=O)c1ccc(N)cc1
TARGET OR TEST SYSTEM: CCRIS mutagenicity, Ames/micronucleus/aberration tests
ANSWER LABEL: false (0)
--
COMPOUND: C1=CC2C3C=CC(C3)C2C1 (stereo not given)
TARGET OR TEST SYSTEM: CCRIS mutagenicity, Ames/micronucleus/aberration tests
ANSWER LABEL: false (0)
--
COMPOUND: COC(=O)C(c1ccccc1)C1CCCCN1 (stereo not given)
TARGET OR TEST SYSTEM: CCRIS mutagenicity, Ames/micronucleus/aberration tests
ANSWER LABEL: false (0)
--
COMPOUND: NS(=O)(=O)c1cc(C(=O)O)c(NCc2ccco2)cc1Cl
TARGET OR TEST SYSTEM: CCRIS mutagenicity, Ames/micronucleus/aberration tests
ANSWER LABEL: false (0)
--
COMPOUND: COc1ccc(C(=O)Nc2ccccc2)cc1[N+](=O)[O-]
TARGET OR TEST SYSTEM: CCRIS mutagenicity, Ames/micronucleus/aberration tests
ANSWER LABEL: true (1)
--
COMPOUND: CCCCNCC
TARGET OR TEST SYSTEM: CCRIS mutagenicity, Ames/micronucleus/aberration tests
ANSWER LABEL: false (0)
--
COMPOUND: NCCCNCCCN
TARGET OR TEST SYSTEM: CCRIS mutagenicity, Ames/micronucleus/aberration tests
ANSWER LABEL: false (0)
--
COMPOUND: Oc1c(Br)cc(Br)cc1Br
TARGET OR TEST SYSTEM: CCRIS mutagenicity, Ames/micronucleus/aberration tests
ANSWER LABEL: false (0)
--
COMPOUND: O=C=Nc1ccc(Cc2ccc(N=C=O)cc2)cc1
TARGET OR TEST SYSTEM: CCRIS mutagenicity, Ames/micronucleus/aberration tests
ANSWER LABEL: false (0)
--
COMPOUND: OC/C(Br)=C(\Br)CO
TARGET OR TEST SYSTEM: CCRIS mutagenicity, Ames/micronucleus/aberration tests
ANSWER LABEL: false (0)
--
COMPOUND: Cc1ccccc1OP(=O)(Oc1ccccc1)Oc1ccccc1
TARGET OR TEST SYSTEM: CCRIS mutagenicity, Ames/micronucleus/aberration tests
ANSWER LABEL: false (0)
--
COMPOUND: NC(Cc1ccc(F)cc1)C(=O)O (stereo not given)
TARGET OR TEST SYSTEM: CCRIS mutagenicity, Ames/micronucleus/aberration tests
ANSWER LABEL: false (0)
--
COMPOUND: CCN(CC)c1ccc2c(-c3ccccc3C(=O)O)c3ccc(=[N+](CC)CC)cc-3oc2c1
TARGET OR TEST SYSTEM: CCRIS mutagenicity, Ames/micronucleus/aberration tests
ANSWER LABEL: false (0)
--
COMPOUND: Cc1ccc(NC(N)=O)cc1
TARGET OR TEST SYSTEM: CCRIS mutagenicity, Ames/micronucleus/aberration tests
ANSWER LABEL: false (0)
--
COMPOUND: CCCCCN
TARGET OR TEST SYSTEM: CCRIS mutagenicity, Ames/micronucleus/aberration tests
ANSWER LABEL: false (0)
--
COMPOUND: Nc1ccc(N)c2ccccc12
TARGET OR TEST SYSTEM: CCRIS mutagenicity, Ames/micronucleus/aberration tests
ANSWER LABEL: false (0)
--
COMPOUND: NCCNCCNCCN
TARGET OR TEST SYSTEM: CCRIS mutagenicity, Ames/micronucleus/aberration tests
ANSWER LABEL: true (1)
--
COMPOUND: CC(C)NC(C)C
TARGET OR TEST SYSTEM: CCRIS mutagenicity, Ames/micronucleus/aberration tests
ANSWER LABEL: false (0)
--
COMPOUND: COC(=O)c1ccc(C(=O)OC)cc1
TARGET OR TEST SYSTEM: CCRIS mutagenicity, Ames/micronucleus/aberration tests
ANSWER LABEL: false (0)
--
COMPOUND: C=CC(=O)OCC(CO)(COC(=O)C=C)COC(=O)C=C
TARGET OR TEST SYSTEM: CCRIS mutagenicity, Ames/micronucleus/aberration tests
ANSWER LABEL: false (0)
